Recorded protein stability index by entry
B1: RAD51 (parent)
chain: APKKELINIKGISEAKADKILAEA

Variants of: B1
Assay: protein stability index of a GFP-peptide fusion (GPS, HEK-293T) (PSI 1-6); higher = more stable;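 also: lentivirally expressed fusions sorted by FACS into six bins by GFP to DsRed ratio, PSI derived from sequencing read proportions per bin multiplied by bin number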
Details: c terminus: a fixed tail appended
Measured Metric: protein stability index

In [3]: df
Out[3]:
    mutation_id  experimental_result
 0          K3C                 4.28
 1         K16F                 3.67
 2         A22F                 3.98
 3         E14V                 4.81
 4         A15Y                 3.58
 5         L21P                 5.21
 6         I12V                  4.7
 7          I9K                 5.22
 8         I20F                 4.02
 9         K19N                 4.84
10         K10H                 4.59
11          A1N                 4.71
12         A22R                 4.84
13          A1R                 4.63
14          K3M                 3.95
15         K10N                 4.42
16          I7K                 4.78
17          E5P                 4.54
18         A15L                 4.27
19          L6G                 4.73
20          E5A                 4.12
21         A15H                 4.18
22          I7D                 5.31
23         K10P                 4.34
24          K3G                 4.65
25         I20S                 4.95
26         S13K                  4.7
27          L6W                 4.12
28         I12D                 5.91
29          L6E                 5.28
30          I9N                 5.26
31         A17H                 4.49
32         G11S                 5.46
33          I9E                 5.68
34          E5S                 4.34
35         K10L                 4.29
36         K16Y                 3.93
37          P2I                 4.01
38         A15K                 4.95
39         A24D                 4.83
40          A1D                 4.31
41          K3Q                 4.81
42         A17P                 4.82
43          K4V                 4.82
44         K16W                 1.64
45         A24G                  4.9
46          A1S                 4.52
47          N8H                 4.69
48         K19I                 3.38
49          K4D                 5.31
50          I7T                 5.04
51         E14N                 4.84
52         A15C                 4.63
53         E23K                 4.46
54         E23P                 4.34
55          K4T                 4.69
56         A15N                 4.36
57          P2H                 4.85
58         A24Q                  5.1
59         A15I                 4.77
60         E23Q                 4.26
61         E23M                 3.72
62         A22W                 3.58
63          N8I                 3.43
64         G11A                 5.12
65          I9S                 4.89
66          K3H                 4.87
67         A17W                 3.98
68         A15V                 4.95
69         E14D                 4.99
70         K16T                 5.22
71         L21Q                 5.18
72          N8Q                 4.67
73          I9Y                 4.91
74         K19M                 4.43
75          P2G                 4.68
76          P2M                 4.53
77         A24C                 4.51
78          I7W                 4.49
79          I7S                 5.52
80         E14Y                 3.65
81         A22P                 4.83
82          K4E                 5.22
83          L6M                 4.92
84          E5N                 4.22
85         K10M                 4.02
86         E14H                 4.58
87         I12R                 5.14
88         E23L                 3.43
89         A15P                 4.41
90          I9F                 4.51
